Tested on: NCI-H322M lung
Experiment: NCI-60 one-dose screen, 48 h (100 = growth as untreated, 0 = no growth, -100 = all killed)
Conditions: 10 µM unless noted
This is part of a sample that, as a whole, favours compounds with a hit. Of some 83,000 tested, about 20% had one in any assay. Activity calls are given as the source filed them. Rule for the calls: active = growth percent below 10; inactive = the rest.
Examples of molecules with documented growth follow.

molecule	growth
Cc1c(CC(=O)Nc2ccccc2)nnn1-c1ccccc1	105% (inactive)
Cc1ccc(S(=O)(=O)N(CCC(=O)O)c2ccccc2)cc1	122% (inactive)
CNC(=O)c1cc(Oc2cccc3nc(NC(=O)Nc4ccc(F)cc4F)ccc23)ccn1	33% (inactive)
C=C(C[n+]1ccccc1)[C@@H]1CC[C@]2(C(=O)OC)CC[C@]3(C)[C@H](CC[C@@H]4[C@@]5(C)CCC(=O)C(C)(C)[C@@H]5CC[C@]43C)[C@@H]12	96.3% (inactive)
O=c1oc2ccccc2cc1-c1nn(-c2ccccc2)cc1/C=N/Nc1nc(-c2ccccc2)c(N=Nc2ccccc2)s1	105% (inactive)
COc1ccc(-c2ccc(-c3ccc(C(=N)N)nc3)s2)cc1	-19.8% (active)
CCOc1ccc(N2C(=O)CCSC2=S)cc1	108% (inactive)
Cc1ccc(C(=O)Nc2ccc(CN3CCN(C)CC3)c(C(F)(F)F)c2)cc1C#Cc1cnc(N)c2ccccc12	17% (inactive)
O=[N+]([O-])c1ccc(N/N=C\c2cc(Cl)ccc2O)nc1	30.4% (inactive)
CN1CCN(Cc2ccc(NC(=O)c3cncc(C#Cc4c(N)ncc5c(F)cccc45)c3)cc2C(F)(F)F)CC1	-23.7% (active)
CC(=O)OCCOc1cc(Cl)c(Cl)cc1Cl	112% (inactive)
COC(CCP(=O)(c1ccccc1)c1ccccc1)(C(=O)c1ccccc1)c1ccccc1 (stereo not drawn)	72.8% (inactive)
CC(CN)[C@@H]1CC[C@]2(CO)CC[C@]3(C)[C@H](CC[C@@H]4[C@@]5(C)CCC(NCCO)C(C)(C)[C@@H]5CC[C@]43C)[C@@H]12 (stereo partly drawn)	86.8% (inactive)

* * *

Tested on: SN12C renal
Test: NCI-60 one-dose screen, 48 h (100 = growth as untreated, 0 = no growth, -100 = all killed)
Settings: 10 µM unless noted
Compounds without any hit were thinned out: in the full panel of roughly 83,000, 20% have a hit.
measured metric: growth (%)

molecule	tgt	endpoint unit	result number
COc1ccc(C2=C/C(=C\c3ccccc3O)C(=O)N2Cc2ccccc2)cc1	SN12C renal	%	95.8
Cc1cc(N2CCOCC2)nc(N(CCCNc2ccnc3cc(Cl)ccc23)Cc2ccc3c(c2)OCO3)n1	SN12C renal	%	21
Nc1ccc(Cl)c2c(=O)c3ccccc3[nH]c12	SN12C renal	%	89.2
C#CCOc1cccc(Nc2c(Cl)c(CCl)nc3ccc(Oc4ccccc4)cc23)c1	SN12C renal	%	5.93
O=C(Nc1cccc(Cl)c1)Oc1c(Cl)c(Cl)c(Cl)c(Cl)c1Cl	SN12C renal	%	97.1
COc1ccc(CNc2ccc3nc(CCC4CCCCC4)[nH]c3c2)cc1	SN12C renal	%	68
CN(C)c1ccc(Cc2cc(-c3ccccc3)nn(C/C(=N/O)c3ccccc3)c2=O)cc1	SN12C renal	%	17.9
O=C(/C=C/c1ccc([N+](=O)[O-])cc1)c1cccc(Nc2nc(Nc3ccccc3)nc(Nc3ccccc3)n2)c1	SN12C renal	%	89.1
Oc1cccc(-c2nc(-c3n[nH]c(=S)n3-c3ccccc3)cc3c2[nH]c2ccccc23)c1	SN12C renal	%	44.9
Cc1ccccc1NC(=O)Cn1cc(CN2CCN(c3ccnc4cc(Cl)ccc34)CC2)nn1	SN12C renal	%	94.7
CCCC[N+]1(C)CCN=C1Cc1ccccc1 (stereo unspecified)	SN12C renal	%	94.4
COc1ccc(/C=N/NC(=O)Cn2nnc3ccccc32)cc1	SN12C renal	%	86.6
O=C(CSc1nc(-c2ccccc2)cn1-c1ccc(Cl)cc1)c1ccc([N+](=O)[O-])cc1	SN12C renal	%	86.5
CS(=O)(=O)c1ccc(/C(=N/NC(N)=S)c2ccc(F)cc2)cc1	SN12C renal	%	96.5
COC(=O)[C@@H](Cc1c[nH]c2ccccc12)NC(=O)[C@H](Cc1ccccc1)NCc1ccncc1	SN12C renal	%	100
COc1ccc(C(=O)/C=C/c2ccc(C)cc2)cc1S(N)(=O)=O	SN12C renal	%	6.38
O=C(c1ccc(F)cc1)C1CCN(CCn2c(=O)[nH]c3ccccc3c2=O)CC1	SN12C renal	%	105
Cc1ccc(C23CCC(=O)N2CCc2cncn23)cc1 (stereo unspecified)	SN12C renal	%	99
COc1ccc(/C=C\c2cc(OC)c(OC)c(OC)c2)cc1OCC(=O)Nc1nc2ccccc2s1	SN12C renal	%	34.9
O=C(/C=C/c1ccc(Cl)cc1)c1ccc(-n2cc(CN3CCN(c4cc5c(cc4F)c(=O)c(C(=O)O)cn5C4CC4)CC3)nn2)cc1	SN12C renal	%	58.2
COc1cccc(C(=O)Nc2cccc(NC(=O)c3ccccn3)c2)c1	SN12C renal	%	98.8
COC(CCP(=O)(c1ccccc1)c1ccccc1)(C(=O)c1ccccc1)c1ccccc1 (stereo unspecified)	SN12C renal	%	96.7
O=C1NCCN1/N=C/c1c(Cl)n(Cc2ccc(Cl)cc2)c2ccccc12	SN12C renal	%	85.8
Cn1cc(-c2csc(-c3cn(CCO)c4ccc(F)cc34)n2)c2cccnc21	SN12C renal	%	73.2
Cc1nc2ccccc2c(/C=C/c2ccc(Br)cc2)c1C(=O)/C=C/c1ccccc1	SN12C renal	%	10.8
C=CCOC(=O)C1=C(C)N(CC)C(=O)N(CC)C1c1c(Cl)n(C)c2ccccc12 (stereo unspecified)	SN12C renal	%	89
CCOC(=O)C#Cc1c(CC(=O)OCC)nnn1[C@H]1O[C@@H](CO)[C@@H]2OC(C)(C)O[C@@H]21	SN12C renal	%	87.1
Oc1cccc2c1NCCC2	SN12C renal	%	11.7
O=C(NCCN1CCOCC1)c1cncnc1Nc1ccc2c(ccn2Cc2ccccn2)c1	SN12C renal	%	93.7
O=C(Nc1ccc2[nH]ncc2c1)c1csc(Nc2ccccc2)n1	SN12C renal	%	41.1
Cc1ccc(C(=O)Nc2ccc(CN3CCN(C)CC3)c(C(F)(F)F)c2)cc1C#Cc1cnc(N)c2ccccc12	SN12C renal	%	11.3
COC(=O)c1nc(-c2ccccc2)oc1S(=O)(=O)NCC(c1ccc(Cl)cc1)N1CCCCC1 (stereo unspecified)	SN12C renal	%	75.5
Cc1cc2c(c(C)n1)CN(C(=O)Nc1nc(-c3cncs3)ccc1N)C2	SN12C renal	%	105
Nc1nc(=O)n([C@H]2CC=C(CO)O2)cc1F	SN12C renal	%	96.8
O=C(Nc1ncc(Cc2ccc(Cl)cc2)s1)C1=NCCCCN1	SN12C renal	%	106
COc1ccc(S(=O)(=O)Oc2ccc(-c3sc4cc(OS(=O)(=O)c5ccc(OC)cc5)ccc4c3C(=O)c3ccc(OCCN4CCCCC4)cc3)cc2)cc1	SN12C renal	%	99.9

* * *

Test system: COLO 205 colon
Assay: NCI-60 one-dose screen, 48 h (100 = growth as untreated, 0 = no growth, -100 = all killed)
Settings: 10 µM unless noted
This is part of a sample that, as a whole, favours compounds with a hit. Of some 83,000 tested, about 20% had one in any assay.

molecule	growth (%)
COC(=O)c1c(C(=O)OC)c2ccc3c4ncccc4ccc3n2c1C(=O)c1ccc(C)cc1	98.8
CC1(C)CC(=O)C2=C(C1)OC(C(=O)c1ccccc1)C2c1cccc(Oc2ccccc2)c1 (centres undefined)	38.3
COC(=O)CNC(=O)c1ccc(NC(=O)c2[nH]c(C)c(Cl)c2Cl)c(O[C@H]2CCNC2)c1	110
COc1ccc(Cn2cc(C(=O)N=Nc3c(O)[nH]c4ccc(Br)cc34)nn2)cc1	115
COc1cc(C2CC(c3cccc(Nc4ccncc4)c3)=Nc3c(N)ncnc3N2)cc(OC)c1OC (centres undefined)	96.6
COC(=O)c1sc(-c2ccc(C)cc2)cc1O	107
Cc1nc2cccc(NCc3ccc(C(=O)NO)cc3)c2c(=O)n1-c1ccccc1	-37.9
COc1ccc(C(=O)/C=C/c2ccc(Cl)cc2)cc1S(N)(=O)=O	60.6
O=C1/C(=C/c2ccccc2)COc2ccc(O)cc21	93.2

* * *

System: NCI-H23 lung
Experiment: NCI-60 one-dose screen, 48 h
Conditions: 10 µM unless noted
This is part of a sample that, as a whole, favours compounds with a hit. Of some 83,000 tested, about 20% had one in any assay. Calls of active or inactive are those of the source. How the source made its calls: active means growth percent below 10; inactive means the rest.
Possible outcomes: active, inactive

molecule	tgt	cat
O=C1CC2C=CCN2C=C1NC(=O)c1ccccc1 (stereo unspecified)	NCI-H23 lung	inactive
Cc1cc([N+](=O)[O-])ccc1NC(=O)c1ccc2c(c1)nc(-c1ccccc1)n2C1CCCCC1	NCI-H23 lung	inactive
COC(=O)c1ccc(-n2cc(CCCOS(=O)(=O)c3ccc(F)cc3)nn2)cc1	NCI-H23 lung	inactive
CN1CCN(CCCNC(=O)c2c3c(n4ccccc24)C(=O)c2ncccc2C3=O)CC1	NCI-H23 lung	active
Cc1cc(=O)oc2cc(Oc3nc(-c4ccccc4)cn4c(-c5ccccc5)cnc34)ccc12	NCI-H23 lung	inactive
O=C1C(c2c(O)[nH]c3ncccc23)=Nc2ccccc21	NCI-H23 lung	inactive
CC/C(=C(/c1ccc(Cl)cc1)c1ccc(OCCN(CC)CC)cc1)c1ccc(OC)cc1	NCI-H23 lung	inactive
COc1ccc(C(=O)/C=C/Nc2cc(-c3ccccc3)nn2-c2ccccc2)cc1	NCI-H23 lung	inactive
C=CCNc1ccc2c3c(cccc13)C(=O)N(CC=C)C2=O	NCI-H23 lung	inactive
COc1cc(/C=C/c2cc(/C=C/c3ccc(O)c(OC)c3)n(C(=O)Nc3ccc(C)cc3C)n2)ccc1O	NCI-H23 lung	active
Cn1nc(-c2ccc(Cl)cc2)nc2c(=O)n(C)c(=O)nc1-2	NCI-H23 lung	active
Cc1ccc(-c2nnc(SCc3nc(N)nc(Nc4ccccc4F)n3)n2-c2ccccc2)cc1	NCI-H23 lung	inactive
Cc1ccc2c(n1)C[C@H](C(C)(C)O)CC[C@H]2C	NCI-H23 lung	inactive
CCOC(=O)CC1CSC(N/N=C(/C)c2cccc(C(F)(F)F)c2)=N1 (stereo unspecified)	NCI-H23 lung	inactive
O=C(Nc1ncc(Cc2cc(C(F)(F)F)ccc2Cl)s1)C(=S)N1CCOCC1	NCI-H23 lung	inactive
C#Cc1cccc(Nc2nc(Cl)nc3cc(NC(=O)CCl)ccc23)c1	NCI-H23 lung	active
O=C(Nc1ccc(Oc2cccc(F)c2)c(Cl)c1)c1cnccn1	NCI-H23 lung	inactive
CCCCCCCCNc1ncnc2c1ncn2Cc1nnc2c3ccccc3c(Cl)nn12	NCI-H23 lung	inactive
CC1=C(C(=O)c2ccccc2)C(c2ccc3c(c2)OCO3)NC(=S)N1 (stereo unspecified)	NCI-H23 lung	inactive
O=C1Nc2ccccc2/C1=C/c1cccn1CCCCCCn1c2ccccc2c(=O)c2ccccc21	NCI-H23 lung	inactive
Cc1c(C(=O)C(SC(=S)N2CCOCC2)SC(=S)N2CCOCC2)nnn1-c1ccc([N+](=O)[O-])cc1	NCI-H23 lung	inactive
Cc1nn(-c2ccccc2)c(Oc2ccccc2)c1/C=N/NC(=O)Cn1c(=O)sc2ccccc21	NCI-H23 lung	inactive
CCOC(=O)c1ccc2c(c1)[n+](=O)c(C(C)=O)c(C(F)(F)F)n2[O-]	NCI-H23 lung	active
COC1=C(OC)C(=O)C(CCCCCCCCCCO)=C(C)C1=O	NCI-H23 lung	inactive
COc1ccc(-c2ccc(-c3ccc(C(=N)N)nc3)s2)cc1	NCI-H23 lung	active
CC1(C)CC[C@]2(CO)CC[C@]3(C)C(=CC[C@@H]4[C@@]5(C)CCNCC(C)(C)[C@@H]5CC[C@]43C)[C@@H]2C1	NCI-H23 lung	inactive
COc1ccc(/C=C2/CCc3cc4ccc(OC)cc4[o+]c32)c(O)c1	NCI-H23 lung	inactive
CNC(=O)c1cc(Oc2cccc3nc(NC(=O)Nc4ccc(F)cc4F)ccc23)ccn1	NCI-H23 lung	inactive
Cc1cc2c(c(C)n1)CN(C(=O)Nc1nc(-c3cncs3)ccc1N)C2	NCI-H23 lung	inactive
COC(=O)[C@H](C)NC(=O)[C@@H]1CCCN1C(=O)CNC(=O)[C@H](C)N	NCI-H23 lung	inactive
Cc1cc(C(=O)Nc2cc(Nc3ncccc3-c3ncnc4nc[nH]c34)ccc2F)cc(C(C)(C)C#N)c1	NCI-H23 lung	inactive
